- target.system: human Edg-1 receptor (Homo sapiens, UniProt P21453)
- Construct: expressed in transfected cells; membrane preparation
- Sequence (P21453 whole entry): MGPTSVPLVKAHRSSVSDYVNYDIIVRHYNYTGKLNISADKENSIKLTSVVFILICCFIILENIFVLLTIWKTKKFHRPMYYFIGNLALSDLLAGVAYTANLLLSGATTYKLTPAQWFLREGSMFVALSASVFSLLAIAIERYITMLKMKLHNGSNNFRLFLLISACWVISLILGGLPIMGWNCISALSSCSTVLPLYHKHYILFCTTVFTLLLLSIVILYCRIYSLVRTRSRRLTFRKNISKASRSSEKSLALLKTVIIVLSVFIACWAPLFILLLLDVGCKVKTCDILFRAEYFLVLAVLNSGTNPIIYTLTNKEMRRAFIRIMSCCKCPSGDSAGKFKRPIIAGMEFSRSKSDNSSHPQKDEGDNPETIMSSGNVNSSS
- procedure.summary: GTP-γ-S assay using human Edg-1 receptors (scintillation proximity assay, membrane preparation from CHO Flp-In cell line)
- Assay type: biochemical
- condition: example compound at 10 μM; relative to 10 μM S1P; GTP-γ-S SPA, human Edg-1 membranes
assay.metric: % Activation (Edg-1 receptor activation in percent of the activation by 10 μM S1P)

>>> experimental_result("CCCOc1nc(Cc2ccc(Cl)cc2)nc2oc(-c3cc(C)c(OCC(=O)OC)c(C)c3)nc12")
"89%"
>>> experimental_result("CCCOc1nc(Cc2ccc(Cl)cc2)nc2oc(-c3cc(C)c(OCC(=O)OCC)c(C)c3)nc12")
"79%"
>>> experimental_result("CCCOc1nc(CN2CCCOCC2)nc2oc(-c3cc(OC)ccc3OC)nc12")
"65%"
>>> experimental_result("CCCOc1nc(CN2CCN(S(C)(=O)=O)CC2)nc2oc(-c3cccc(F)c3)nc12")
"22%"
>>> experimental_result("CCOc1nc(Cc2ccc(Cl)cc2)nc2oc(-c3cccc(O)c3)nc12")
"103%"
>>> experimental_result("C=CCCOc1nc(Cc2ccc(Cl)cc2)nc2oc(-c3cccc(C)c3)nc12")
"99%"
>>> experimental_result("CCCOc1nc(CN2CCOC[C@@H]2C)nc2oc(-c3cccc(F)c3)nc12")
"88%"
>>> experimental_result("CCOc1nc(Cc2ccc(Cl)cc2)nc2oc(-c3cc(C)c(OCCC[S+]([O-])c4ncn[nH]4)c(C)c3)nc12 (centres unmarked)")
"86%"

* * *

Known % Activation (Edg-1 receptor activation in percent of the activation by 10 μM S1P) of a selection of compounds
- target.system: human Edg-1 receptor (Homo sapiens, UniProt P21453)
- Construct: expressed in transfected cells; membrane preparation
- procedure.summary: GTP-γ-S assay using human Edg-1 receptors (scintillation proximity assay, membrane preparation from CHO Flp-In cell line)
- Assay type: biochemical
- condition: example compound at 10 μM; relative to 10 μM S1P; GTP-γ-S SPA, human Edg-1 membranes
- From the text: Determination of the Pharmacological Activity A) GTP-γ-S Assay Using Human Edg-1 Receptors In order to determine the Edg-1 receptor activation by the compounds of the invention, a GTP-γ-S (guanosine 5′-[γ-thio]triphosphate) assay for G-protein coupled receptor binding based on the scintillation proximity assay principle was used, employing a cell membrane preparation from a CHO Flp-In cell line which constitutively overexpresses the human Edg-1 receptor. […]
assay.metric: % Activation (Edg-1 receptor activation in percent of the activation by 10 μM S1P)

>>> experimental_result("CCCOc1nc(Cc2ccc(Cl)cc2)nc2oc(-c3cc(C)c(OCC(=O)N4CC(C(=O)O)C4)c(C)c3)nc12 [Example 242]")
"106%"
>>> experimental_result("CCOc1nc(Cc2ccc(Cl)cc2)nc2oc(-c3cc(C)c(OCC(O)CSc4nnc(C(C)(C)C)[nH]4)c(C)c3)nc12 (centres unmarked) [Example 282]")
"108%"
>>> experimental_result("CCCOc1nc(CN2CC[C@H](F)C2)nc2oc(-c3cccc(F)c3)nc12 [Example 202]")
"109%"
>>> experimental_result("Cc1cccc(-c2nc3c(OCC4CC4)nc(C(C)c4ccccc4)nc3o2)c1 (centres unmarked) [Example 16]")
"106%"
>>> experimental_result("CCCOc1nc(CN2CCOCC2)nc2oc(-c3cccc(F)c3)nc12 [Example 30]")
"114%"
>>> experimental_result("CCCOc1nc(Cn2cncn2)nc2oc(-c3cccc(F)c3)nc12 [Example 204]")
"79%"
>>> experimental_result("CCCOc1nc(Cc2ccc(Cl)cc2)nc2oc(-c3cc(C)c(OCC(O)CNC(=O)C4(O)CC4)c(C)c3)nc12 (centres unmarked) [Example 308]")
"107%"
>>> experimental_result("CCCOc1nc(Cc2ccc(Cl)cc2)nc2oc(-c3ccc(OCC(O)CN)c(Cl)c3)nc12 (centres unmarked) [Example 207]")
"302%"

* * *

- target.system: human Edg-1 receptor (Homo sapiens)
- Construct: expressed in transfected cells; membrane preparation
- procedure.summary: GTP-γ-S assay using human Edg-1 receptors (scintillation proximity assay, membrane preparation from CHO Flp-In cell line)
- Assay type: biochemical
- condition: example compound at 10 μM; relative to 10 μM S1P; GTP-γ-S SPA, human Edg-1 membranes
Decision: % Activation (Edg-1 receptor activation in percent of the activation by 10 μM S1P) compared against 90%; not below it gives label 1, below it gives label 0.

>>> assigned_class("CCCOc1nc(CN2CCCC2Cc2ccccc2)nc2oc(-c3cccc(F)c3)nc12 (centres unmarked)")
"label 0"
>>> assigned_class("CCCOc1nc(CN2CCC(OC)CC2)nc2oc(-c3cccc(F)c3)nc12")
"label 0"
>>> assigned_class("C#CCOc1nc(Cc2ccc(Cl)cc2)nc2oc(-c3cccc(C)c3)nc12")
"label 0"
>>> assigned_class("CCOc1nc(CC2CCC2)nc2oc(-c3cc(F)ccc3Cl)nc12")
"label 1"
>>> assigned_class("CCCOc1nc(Cn2c(=O)n(C)c3ccccc32)nc2oc(-c3cccc(F)c3)nc12")
"label 1"
>>> assigned_class("CCCC(=O)NCC(O)COc1c(C)cc(-c2nc3c(OCC)nc(Cc4ccc(Cl)cc4)nc3o2)cc1C (centres unmarked)")
"label 1"
>>> assigned_class("CCCOc1nc(Cn2ncnc2C)nc2oc(-c3cccc(F)c3)nc12")
"label 0"
>>> assigned_class("CCCOc1nc(Cc2ccc(Cl)cc2)nc2oc(-c3cncc(C)c3)nc12")
"label 0"

* * *

- target.system: human Edg-1 receptor (Homo sapiens)
- Construct: expressed in transfected cells; membrane preparation
- procedure.summary: GTP-γ-S assay using human Edg-1 receptors (scintillation proximity assay, membrane preparation from CHO Flp-In cell line)
- Assay type: biochemical
- condition: example compound at 10 μM; relative to 10 μM S1P; GTP-γ-S SPA, human Edg-1 membranes
assay.metric: % Activation (Edg-1 receptor activation in percent of the activation by 10 μM S1P) (%)

>>> experimental_result("CCCOc1nc(CC2CCOCC2)nc2oc(-c3cccc(C)c3)nc12 [Example 159]")
73
>>> experimental_result("CCCOc1nc(Cc2ccc(Cl)cc2)nc2oc(-c3ccc(O)c(F)c3)nc12 [Example 152]")
100
>>> experimental_result("CCCOc1nc(Cc2ccc(Cl)cc2)nc2oc(-c3ccc(OC)c(Cl)c3)nc12 [Example 218]")
42
>>> experimental_result("CCCOc1nc(Cn2ccnc2)nc2oc(-c3cccc(F)c3)nc12 [Example 61]")
76
>>> experimental_result("CCCOc1nc(CN2CCCC(C(F)(F)F)C2)nc2oc(-c3cccc(F)c3)nc12 (centres unmarked) [Example 304]")
102
>>> experimental_result("CCCOc1nc(Cc2ccc(Cl)cc2)nc2oc(-c3cc(C)c(OCC(=O)NCCC(=O)O)c(C)c3)nc12 [Example 241]")
128
>>> experimental_result("CCCOc1nc(Cc2ccc(Cl)cc2)nc2oc(-c3cc(C)c(OCCCNCc4nnn[nH]4)c(C)c3)nc12 [Example 227]")
142
>>> experimental_result("CCOc1nc(Cc2ccc(Cl)cc2)nc2oc(-c3cc(C)c(OCC(O)CNC(C)=O)c(C)c3)nc12 (centres unmarked) [Example 208]")
111

* * *

Known % Activation (Edg-1 receptor activation in percent of the activation by 10 μM S1P) of a selection of compounds
- target.system: human Edg-1 receptor (Homo sapiens)
- Construct: expressed in transfected cells; membrane preparation
- procedure.summary: GTP-γ-S assay using human Edg-1 receptors (scintillation proximity assay, membrane preparation from CHO Flp-In cell line)
- Format: biochemical
- condition: example compound at 10 μM; relative to 10 μM S1P; GTP-γ-S SPA, human Edg-1 membranes
assay.metric: % Activation (Edg-1 receptor activation in percent of the activation by 10 μM S1P) (%)

>>> experimental_result("CCCOc1nc(Cc2ccc(Cl)cc2)nc2oc(-c3cc(C)c(OCC(=O)CC)c(C)c3)nc12")
70
>>> experimental_result("CCOc1nc(Cc2ccc(Cl)cc2)nc2oc(-c3cc(C)c(OCC(=O)NCCNS(C)(=O)=O)c(C)c3)nc12")
114
>>> experimental_result("CCCOc1nc(Cc2ccccc2)nc2oc(-c3cccc(OCCO)c3)nc12")
101
>>> experimental_result("CCCOc1nc(Cc2ccc(Cl)cc2)nc2oc(-c3cc(C)c(OCC(O)CNC(C)=O)c(C)c3)nc12 (centres unmarked)")
106
>>> experimental_result("CCCOc1nc(CN2CCCC2(F)F)nc2oc(-c3cccc(F)c3)nc12")
105
>>> experimental_result("CCOc1nc(Cc2ccc(Cl)cc2)nc2oc(-c3cccc(OC)c3)nc12")
103
>>> experimental_result("CCOc1nc(Cc2ccc(Cl)cc2)nc2oc(-c3cc(C)c(OCC(O)CS(=O)(=O)c4nnc(C(C)(C)C)[nH]4)c(C)c3)nc12 (centres unmarked)")
92
>>> experimental_result("CCOc1nc(Cc2ccc(Cl)cc2)nc2oc(-c3cc(C)c(OCCCSc4ncn[nH]4)c(C)c3)nc12")
52
>>> experimental_result("CCCOc1nc(CN2CC(C)OC(C)C2)nc2oc(-c3cccc(F)c3)nc12 (centres unmarked)")
85
>>> experimental_result("CCOc1nc(Cc2ccc(Cl)cc2)nc2oc(-c3cc(C)c(OCC(=O)NCCCC(=O)O)c(C)c3)nc12")
113
>>> experimental_result("CCCOc1nc(Cc2ccc(Cl)cc2)nc2oc(-c3ccc(N(C)C)c(C)c3)nc12")
91
>>> experimental_result("CCCOc1nc(CN2CCC(O)C2)nc2oc(-c3cccc(F)c3)nc12 (centres unmarked)")
58
>>> experimental_result("CCOc1nc(Cc2ccc(Cl)cc2)nc2oc(-c3cc(C)c(OCC(O)CNCC(c4cccnc4)N(C)C)c(C)c3)nc12 (centres unmarked)")
84
>>> experimental_result("CCOc1nc(Cc2ccc(Cl)cc2)nc2oc(-c3cc(C)c(OCC(=O)NCCC(=O)OC(C)(C)C)c(C)c3)nc12")
74
>>> experimental_result("CCCOc1nc(CN2CCCC(O)C2)nc2oc(-c3cccc(F)c3)nc12 (centres unmarked)")
87
>>> experimental_result("CCOc1nc(Cc2ccc(Cl)cc2)nc2oc(-c3cccc(OCC(=O)O)c3)nc12")
87
>>> experimental_result("CCCOc1nc(CCc2ccc(Cl)cc2)nc2oc(-c3cccc(F)c3)nc12")
60
>>> experimental_result("C=CCOc1nc(Cc2ccc(Cl)cc2)nc2oc(-c3cccc(C)c3)nc12")
136
>>> experimental_result("CCCOc1nc(CN2CCCOCC2)nc2oc(-c3cc(F)ccc3Cl)nc12")
97
>>> experimental_result("CCCOc1nc(CN2CCOCC2)nc2oc(-c3ccc(F)c(F)c3)nc12")
107
>>> experimental_result("CCOc1nc(Cc2ccc(Cl)cc2)nc2oc(-c3cc(C)c(OCC(=O)NCCCNS(C)(=O)=O)c(C)c3)nc12")
94
>>> experimental_result("CCCOc1nc(CN2CCC(F)(F)CC2)nc2oc(-c3cc(Cl)ccc3OC)nc12")
104
>>> experimental_result("CCCOc1nc(Cc2ccc(Cl)cc2)nc2oc(-c3cccc(N(C)C)c3)nc12")
55
>>> experimental_result("CCCOc1nc(Cc2ccc(Cl)cc2)nc2oc(-c3cc(C)c(OCC(=O)N4CCC(C(=O)O)C4)c(C)c3)nc12 (centres unmarked)")
106
>>> experimental_result("Cc1cccc(-c2nc3c(OCC4CC4)nc(CC4CCC4)nc3o2)c1")
97
>>> experimental_result("C=CCOc1nc(Cc2ccc(Cl)c(Cl)c2)nc2oc(-c3cccc(F)c3)nc12")
85
>>> experimental_result("CCCOc1nc(Cc2ccc(Cl)cc2)nc2oc(-c3cc(C)c(OCC(O)CNC(=O)c4ccco4)c(C)c3)nc12 (centres unmarked)")
103
>>> experimental_result("CCCOc1nc(CN2CCC(F)(F)CC2)nc2oc(-c3ccco3)nc12")
121
>>> experimental_result("C#CCOc1nc(Cc2ccc(Cl)cc2)nc2oc(-c3cccnc3)nc12")
47
>>> experimental_result("CCCOc1nc(Cn2cnc(CO)c2)nc2oc(-c3cccc(F)c3)nc12")
30
>>> experimental_result("CCOc1nc(Cc2ccc(Cl)cc2)nc2oc(-c3cc(C)c(OCC(=O)NCC(=O)OC(C)(C)C)c(C)c3)nc12")
72
>>> experimental_result("CCCOc1nc(CN2CCC(F)(F)CC2)nc2oc(-c3c(F)ccc(F)c3F)nc12")
111
